Value source: paper PMC12486159

assay-system: human FATP2 (Homo sapiens, UniProt O14975)
Sequence (O14975 whole entry): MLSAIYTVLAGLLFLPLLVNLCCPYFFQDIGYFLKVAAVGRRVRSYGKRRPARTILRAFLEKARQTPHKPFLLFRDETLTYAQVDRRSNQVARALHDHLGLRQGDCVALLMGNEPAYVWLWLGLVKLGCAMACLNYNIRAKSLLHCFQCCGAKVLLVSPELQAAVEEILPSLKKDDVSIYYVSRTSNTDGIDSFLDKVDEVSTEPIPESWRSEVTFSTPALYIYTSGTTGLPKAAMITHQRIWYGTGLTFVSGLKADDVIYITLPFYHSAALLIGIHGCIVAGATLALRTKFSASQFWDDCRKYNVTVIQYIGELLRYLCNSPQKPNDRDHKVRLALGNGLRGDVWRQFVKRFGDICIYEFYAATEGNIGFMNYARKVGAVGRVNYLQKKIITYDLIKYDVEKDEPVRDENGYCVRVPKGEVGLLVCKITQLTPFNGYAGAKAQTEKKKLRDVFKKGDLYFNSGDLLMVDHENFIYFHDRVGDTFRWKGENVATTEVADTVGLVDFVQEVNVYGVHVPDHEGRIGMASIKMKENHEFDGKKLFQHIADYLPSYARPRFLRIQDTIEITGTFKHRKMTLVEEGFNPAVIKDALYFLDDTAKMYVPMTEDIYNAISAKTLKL
assay: BODIPY-FA uptake in FATP2-overexpressing HPCT cells, fluorescence plate reader
readout-label: IC50 (µM)
Report the figure in µM without appending any unit label.

Q: What does the record list as IC50 for O=C1Nc2ccc(Br)cc2C12NN=C(c1ccccc1)S2 (stereo not shown) ?
Ans: 5
